- tested_target: T1, endothelin A receptor (ETaR) (Homo sapiens (assumed), UniProt P25101)
- T1 construct: endothelin A receptor (ETaR), a GPCR; plasmid and cells were gifts from Gmax Biopharm LLC; also called GPCR; ETaR-expressing CHO cells; source: CHO cells stably expressing and displaying ETaR (provided by Gmax Biopharm LLC); on cells, and in vesicles prepared from them
- T1 sequence (P25101 21-427): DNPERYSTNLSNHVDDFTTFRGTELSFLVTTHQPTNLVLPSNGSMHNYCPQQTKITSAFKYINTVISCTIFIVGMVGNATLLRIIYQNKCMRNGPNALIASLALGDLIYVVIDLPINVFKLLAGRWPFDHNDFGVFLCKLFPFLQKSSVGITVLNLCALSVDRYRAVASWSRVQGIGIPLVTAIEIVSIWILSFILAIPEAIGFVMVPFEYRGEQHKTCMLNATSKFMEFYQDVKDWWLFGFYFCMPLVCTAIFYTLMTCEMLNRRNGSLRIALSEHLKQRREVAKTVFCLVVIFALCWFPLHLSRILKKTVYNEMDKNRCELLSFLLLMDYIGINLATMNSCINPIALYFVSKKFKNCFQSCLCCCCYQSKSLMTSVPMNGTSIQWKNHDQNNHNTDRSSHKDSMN
- assay_method_text: flow cytometry on cells; competition: unlabelled scFv at 0.01 to 316 nM against FITC-labeled wild-type anti-GPCR at L = 150 nM on ETaR-expressing CHO cells, 1 h at 4 °C; Ki = IC50/(1 + L/Kd)
- reported_conditions: one partner purified
measured_metric: pIC50
FYI, pIC50 means -log10 of a concentration in mol per litre.

binder	pIC50
anti-GPCR (ETaR) antibody 80H4, scFv-His, wild type (scFv, V domains shown, heavy-chain variable region of 80H4; (G4S)3 linker; light-chain variable region of 80H4; Order HV-(G4S)3-LV; made with a signal peptide (SP); also called WT; anti-GPCR-scFv-His; source: Expi293F, transfected, purified from supernatant (Ni-NTA); not shown: His tag, C-terminal, kept) VH: EVQLLESGGGLVQPGGSLRLSCAASGFTFSSYGMSWVRQAPGKGLEWVSAISTNGATAYYADSVKGRFTISRDNSKNTLYLQMNSLRAEDTAVYYCATEKGAMGYWGQGTLVTVSS VL: DIVMTQTPLSLSVTPGQPASISCRSSQNIVHSTGNTYLEWYLQKPGQSPQLLIYKVSNRFSGVPDRFSGSGSGTDFTLKISRVEAEDVGVYYCFQGSHFPFTFGQGTKVEIK	6.25
anti-GPCR (ETaR) antibody 80H4, scFv-His, mutant N28Y (scFv, V domains shown, heavy-chain variable region as in m3; (G4S)3 linker; light-chain variable region as in m3; source: Expi293F, transfected, purified from supernatant (Ni-NTA); not shown: His tag, C-terminal, kept) VH: EVQLLESGGGLVQPGGSLRLSCAASGFTFSSYGMSWVRQAPGKGLEWVSAISTNGATAYYADSVKGRFTISRDNSKNTLYLQMNSLRAEDTAVYYCATEKGAMGYWGQGTLVTVSS VL: DIVMTQTPLSLSVTPGQPASISCRSSQYIVHSTGNTYLEWYLQKPGQSPQLLIYKVSNRFSGVPDRFSGSGSGTDFTLKISRVEAEDVGVYYCFQGSHFPFTFGQGTKVEIK	6.68

Retrieve pIC50 measured for anti-GPCR (ETaR) antibody 80H4, scFv-His, mutant T113A-V64M (scFv, V domains shown, heavy-chain variable region as in m3; (G4S)3 linker; light-chain variable region as in m3; source: Expi293F, transfected, purified from supernatant (Ni-NTA); not shown: His tag, C-terminal, kept) VH: EVQLLESGGGLVQPGGSLRLSCAASGFTFSSYGMSWVRQAPGKGLEWVSAISTNGATAYYADSMKGRFTISRDNSKNTLYLQMNSLRAEDTAVYYCATEKGAMGYWGQGTLVAVSS VL: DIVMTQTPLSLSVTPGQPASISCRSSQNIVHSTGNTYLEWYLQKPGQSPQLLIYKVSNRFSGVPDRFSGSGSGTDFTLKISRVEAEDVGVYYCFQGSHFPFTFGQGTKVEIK and print it.
6.64
